Where do the numbers come from? From patent US5523460A.

ASSAY_TARGET: HMG-CoA Reductase (Rattus norvegicus, UniProt P51639)
Sequence (P51639 1-887): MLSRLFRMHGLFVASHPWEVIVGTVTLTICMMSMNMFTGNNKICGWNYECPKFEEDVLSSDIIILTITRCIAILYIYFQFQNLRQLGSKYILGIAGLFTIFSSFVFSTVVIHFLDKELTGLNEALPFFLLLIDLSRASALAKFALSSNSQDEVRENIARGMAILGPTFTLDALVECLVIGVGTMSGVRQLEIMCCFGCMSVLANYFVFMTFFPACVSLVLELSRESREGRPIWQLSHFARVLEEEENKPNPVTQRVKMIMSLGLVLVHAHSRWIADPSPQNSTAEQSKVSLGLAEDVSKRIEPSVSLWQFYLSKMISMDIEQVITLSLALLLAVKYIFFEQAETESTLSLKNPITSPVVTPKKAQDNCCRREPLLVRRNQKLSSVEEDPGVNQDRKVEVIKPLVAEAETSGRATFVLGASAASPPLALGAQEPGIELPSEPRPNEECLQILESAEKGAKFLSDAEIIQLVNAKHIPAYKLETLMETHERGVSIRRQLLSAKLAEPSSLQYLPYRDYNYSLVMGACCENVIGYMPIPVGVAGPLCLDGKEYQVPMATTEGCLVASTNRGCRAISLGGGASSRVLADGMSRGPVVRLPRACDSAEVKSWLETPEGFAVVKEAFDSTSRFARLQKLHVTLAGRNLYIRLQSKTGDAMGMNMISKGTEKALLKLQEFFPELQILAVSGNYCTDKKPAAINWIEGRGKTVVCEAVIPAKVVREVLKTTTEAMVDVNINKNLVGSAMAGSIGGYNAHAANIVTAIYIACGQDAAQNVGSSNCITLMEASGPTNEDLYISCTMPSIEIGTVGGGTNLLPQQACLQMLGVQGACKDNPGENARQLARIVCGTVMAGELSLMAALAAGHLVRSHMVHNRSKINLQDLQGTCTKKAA
ASSAY: biochemical
PROTOCOL_CONDITIONS: method of J. Biol. Chem. Vol. 234, page 2835 (1959); read-out: HMG-CoA Reductase Inhibitory Activity IC50
Listing of entries alongside the reported pIC50.
Please treat pIC50 as minus the base-10 logarithm of the molar concentration.

> print(dat)
                                   molecule                              assay.target  recorded.metric  reported.result
1  COCCOc1c(OC)cc(C(C)C)c(/C=C/C(O)CC(O)CC(=O)O)c1-c1ccc(F)cc1 (centres unmarked)  HMG-CoA Reductase (Rattus norvegicus, UniProt P51639)            pIC50             7.59

Provide measured pIC50 on HMG-CoA Reductase (Rattus norvegicus, UniProt P51639) for COCCOCCOc1cc(C(C)C)c(/C=C/C(O)CC(O)CC(=O)O)c(-c2ccc(F)cc2)c1OC (centres unmarked) please. 7.58

Given COCCOCCOc1c(OC)cc(C(C)C)c(/C=C/C(O)CC(O)CC(=O)O)c1-c1ccc(F)cc1 (centres unmarked) , report its pIC50 on HMG-CoA Reductase (Rattus norvegicus, UniProt P51639). 8.03

State recorded pIC50 with HMG-CoA Reductase (Rattus norvegicus, UniProt P51639), entry COc1c(OCCO)cc(C(C)C)c(/C=C/C(O)CC(O)CC(=O)O)c1-c1ccc(F)cc1 (centres unmarked) , no comment. 7.69

Tell me pIC50 of COc1c(Cl)cc(C(C)C)c(/C=C/C(O)CC(O)CC(=O)O)c1-c1ccc(F)cc1 (centres unmarked) when tested on HMG-CoA Reductase (Rattus norvegicus, UniProt P51639). 7.73
